Test system: EVSA-T (human breast carcinoma)
Test: Anti-proliferative activity, Alamar Blue assay, EVSA-T
Type: cell-based
Condition details: Homo sapiens, EVSA-T, 72 h, EVSA-T cell line, 72 hours, Alamar Blue; read-out: EVSA-T prolif
Counter-ions that a name gives are not always drawn.
Give pEC50 for every item shown.
Numbers only, as −log10 of the molar value.

Provide reported pEC50 for each item, in the same order as listed.
1. CC1=C(C)C(=O)N(C[C@H]2CN[C@H](C)CN2CC(=O)N2CC(C)(C)c3cnc(Cc4ccc(F)cc4F)cc32)C1 [Example 33, dihydrochloride]
2. CCCC(F)(F)c1cc2c(cn1)C(C)(C)CN2C(=O)CN1C[C@@H](C)NC[C@@H]1CN1C[C@H](C)OCC1=O [Example 26, dihydrochloride]

# output
[8.96, 7.57]

For the 2 compounds below, give their pEC50 values.
1. C[C@@H]1CN(CC(=O)N2CC(C)(C)c3ncc([C@H](O)c4ccc(F)cc4)cc32)[C@@H](CN2Cc3ccccc3C2=O)CN1 [Example 84, dihydrochloride]
2. C[C@@H]1CN(CC(=O)N2CC(C)(C)c3cnc(Cc4ccc(F)cc4)cc32)[C@@H](CN2C[C@H](C)N(C)CC2=O)CN1 [Example 107, dihydrochloride]

# output
1: 6.82; 2: 7.96
